MEASURED_TARGET: Proto-oncogene tyrosine-protein kinase receptor Ret (Homo sapiens)
PARTICULARS: at 1 µM
# strict inequality: residual activity < 90% yields T, everything else yields F

q: In plain terms, does CCN(CC)C(=O)c1ccc(Nc2nc(OCC3CCCCC3)c3nc[nH]c3n2)cc1 come in under 90% for residual activity?
a: T

q: Is residual activity strictly under 90% for the entry Nc1ccc2ncnc(NCCc3ccc(Oc4ccccc4)cc3)c2c1 ?
a: T

q: Confirm or reject: residual activity of Cc1cc(Nc2nc(-c3ccccc3)nc3ccccc23)n[nH]1 lies strictly below 90%
a: T

q: Find out if reported residual activity for COc1cc2ncnc(N3CCN(C(=O)Nc4ccc(Oc5ccccc5)cc4)CC3)c2cc1OC is less than 90%
a: F

q: Given O=[N+]([O-])c1ccc(-c2nc(-c3ccc(F)cc3)c(-c3ccncc3)[nH]2)cc1 , is recorded residual activity strictly lower than 90%?
a: T

q: Regarding CN(C)c1ccc(/C=C2\C(=O)Nc3ccccc32)cc1 , kindly confirm whether its residual activity is beneath 90%.
a: T

q: Identify whether the compound O=C(O)c1ccc2c3c1cccc3c(=O)n1c3ccccc3nc21 records residual activity below 90%.
a: F

q: Does Nc1cccc(-c2cc3c(Oc4cccc(O)c4)ncnc3[nH]2)c1 have residual activity strictly under 90%?
a: T

q: Below 90% on residual activity? Entry Cn1cc(/C=C2\C(=O)Nc3ccc(S(N)(=O)=O)cc32)c2ccccc21
a: T

q: Criterion: residual activity strictly below 90%. Is it met by Oc1n[nH]c2nnc(-c3c(-c4ccccc4)nn4ccccc34)cc12 ?
a: F

q: I wonder whether O=C1NC(=O)/C(=C\c2ccc3nccnc3c2)S1 has residual activity below 90%. Can you tell?
a: F

q: Hello, I'm reviewing records and need to know if residual activity of COc1cc2ncnc(Nc3ccc(O)c(Br)c3)c2cc1OC is below 90%. Could you check?
a: T

q: Criterion: residual activity strictly below 90%. Is it met by Oc1ccc(Nc2nc(-c3ccc(Cl)cc3)cs2)cc1 ?
a: F

q: API: query returns whether the compound falls strictly under 90% in residual activity. Query: CCOc1cc2ncnc(Nc3cccc(Br)c3)c2cc1OCC
a: T

q: # check: residual activity < 90% for CCN(CC)CCCCN1c2ccccc2Oc2ccc(Cl)cc21
a: F

q: Dear colleague, could you confirm whether residual activity of Nc1n[nH]c2nnc(-c3c(-c4ccccc4)nn4ccccc34)cc12 falls below 90%? Thanks.
a: F

q: Report whether reported residual activity is lower than 90% (strictly) for CC[n+]1c(/C=C/N(C)c2ccccc2)n(-c2ccccc2)c2ccc(-c3nc4ccccc4s3)cc21
a: F

q: Decide: residual activity of CC(C)n1cnc2c(NCc3ccccc3)nc(NCCCO)nc21 strictly below 90%?
a: F

q: Does this compound meet the criterion residual activity < 90%? O=C1Nc2ccc(Br)cc2/C1=C\c1cc2c([nH]1)CCCC2
a: T

q: Please state whether residual activity is below 90% for NC(=O)c1ccc2[nH]c(-c3ccc(Oc4ccc(Cl)cc4)cc3)nc2c1
a: F

q: Please state whether residual activity is below 90% for N#C/C(=C(\N)Sc1ccc(N)cc1)c1ccccc1C(F)(F)F
a: F

q: For COc1cc2ncc(-c3ccccc3)nc2cc1OC , is the recorded residual activity below the cut-off of 90%?
a: F

q: Hi there! Is residual activity for Cn1nc2c3c(cccc31)C(=O)c1ccccc1-2 below 90%, do you know?
a: F

Where do these numbers come from? They come from ChEMBL document CHEMBL2218924.
